meta.source: patent US20240150297A1

# system_under_test: CYP2C19 (Homo sapiens (Human))
# Sequence (P33261 whole entry): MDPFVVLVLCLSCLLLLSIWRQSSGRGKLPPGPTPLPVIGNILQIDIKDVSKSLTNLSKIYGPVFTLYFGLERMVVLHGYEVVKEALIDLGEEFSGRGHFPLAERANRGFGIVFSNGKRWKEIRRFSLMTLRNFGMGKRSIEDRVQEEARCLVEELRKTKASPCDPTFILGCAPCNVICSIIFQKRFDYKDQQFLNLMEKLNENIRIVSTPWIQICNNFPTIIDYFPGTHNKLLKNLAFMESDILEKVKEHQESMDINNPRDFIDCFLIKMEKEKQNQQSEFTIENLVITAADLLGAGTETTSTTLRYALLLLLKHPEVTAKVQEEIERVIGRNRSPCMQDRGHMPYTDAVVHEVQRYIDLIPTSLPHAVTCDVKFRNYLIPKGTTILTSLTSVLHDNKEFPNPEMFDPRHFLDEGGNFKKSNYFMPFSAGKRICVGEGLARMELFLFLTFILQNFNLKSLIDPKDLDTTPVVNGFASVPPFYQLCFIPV
# experimental_details: CYP450 inhibition assay, CYP2C19
# Type: in vitro ADME
# run_parameters: pH 7.4, read-out: CYP Inhibition (% Inhibition at 10 μm) 2C19
measured_attribute: inhibition at 10 µM (%)
Respond numerically; units are % and should not be typed.

Ask: Item: Cc1n[nH]c(C)c1N1CCN(c2cc(C(=O)O)ccc2F)CC1 [Compound 18a] Test system: CYP2C19 (Homo sapiens (Human)) Read-out: inhibition at 10 µM Value: ?
Result: 3.1

====

Field: IC50. Provide a value for each of the molecules that follow.
# system_under_test: native RBP4 purified from human urine (Homo sapiens (Human))

Ask: Recorded IC50 for Cc1n[nH]c(C)c1N1CCN(c2cc(-c3nn[nH]n3)ccc2F)CC1 , please?
Result: > 3000 nM

Ask: Item: Cc1ccc(C(=O)O)cc1N1CCN(c2c(C)n[nH]c2C)CC1 [Compound 18d]
Result: > 3000 nM

Ask: Item: Cc1n[nH]c(C)c1N1CCN(c2cc(C(=O)O)ccc2Cl)CC1 [Compound 18f]
Result: > 3000 nM

Ask: Item: Cc1n[nH]c(C)c1N1CCN(c2cccc(C(=O)O)c2)CC1 [Compound 18b]
Result: > 30000 nM

Ask: Item: Cc1n[nH]c(C)c1N1CCN(c2cc(C(N)=O)ccc2F)CC1
Result: > 3000 nM
